system: DMS 114 small cell lung; experiment: NCI tumour cell line growth inhibition, 48 h

Compound	Target or system	TGI
O=P(O)(O)C1CCCC(P(=O)(O)O)N1 (stereo unspecified)	DMS 114 small cell lung	> 100 µM
CCOC(=O)[C@H]1Nc2ccc(Cl)cc2[C@H]2OCC[C@@H]12	DMS 114 small cell lung	> 100 µM
Cc1ccc2c(c1)SC(c1cc3c(cc1Br)OCO3)S2 (stereo unspecified)	DMS 114 small cell lung	> 31.6 µM
Nc1nnc(N)n1NC(=O)C(=O)Nc1ccc([N+](=O)[O-])cc1	DMS 114 small cell lung	> 100 µM
NC(=O)Nc1cc(O)ccc1N=Nc1ccc(S(=O)(=O)Nc2ccccn2)cc1	DMS 114 small cell lung	> 100 µM
Nc1ncnc2c(C3OC(CO)C(O)C3O)[nH]nc12 (stereo unspecified)	DMS 114 small cell lung	1.36 µM
CC(C)(C)OC(=O)NC1CCC[C@H]1O (stereo partly specified)	DMS 114 small cell lung	> 100 µM
N#CCN1CCOCCOCCN(CC#N)CCOCCOCC1	DMS 114 small cell lung	> 100 µM
COc1ccc2nc(NC(=O)C(=O)C(C(=O)c3ccccc3-c3ccccc3)C3OC(=O)c4ccccc43)sc2c1 (stereo unspecified)	DMS 114 small cell lung	37.2 µM
CCC[CH2][Ge]([CH2]CCC)([CH2]CCC)[O]C(=O)C(OC)c1ccccc1 (stereo unspecified)	DMS 114 small cell lung	34.4 µM
NC(=S)NNC(=O)CCC(=O)Nc1ccc(Cl)cc1Cl	DMS 114 small cell lung	> 100 µM
